# Tested on: 323965-272-R-J2-PDC complex spheroid growth, % test/control
# Assay remarks: Anticancer human tumor 323965-272-R-J2-PDC patient-derived pancreatic carcinoma cell line growth inhibition [Asc]
# Condition summary: curve of first compound; second compound 0.0316 µM
pIC50: −log10 of the molar value.
The compounds listed here are annotated with their pIC50.

O=C(c1cc(Cc2n[nH]c(=O)c3ccccc23)ccc1F)N1CCN(C(=O)C2CC2)CC1 + CNC(C)C(=O)NC1CN(S(=O)(=O)c2cccc(S(=O)(=O)N3CCC4CCC(C(=O)NC(c5ccccc5)c5ccccc5)N4C(=O)C(NC(=O)C(C)NC)C3)c2)CCC2CCC(C(=O)NC(c3ccccc3)c3ccccc3)N2C1=O
< 5.00

# next compound below
Exercise: Would you please give the reported pIC50 of C#Cc1c(F)ccc2cc(O)cc(-c3ncc4c(N5CC6CCC(C5)N6)nc(OCC56CCCN5CC(F)C6)nc4c3F)c12 (configuration not stated) + CNC(C)C(=O)NC1CN(S(=O)(=O)c2cccc(S(=O)(=O)N3CCC4CCC(C(=O)NC(c5ccccc5)c5ccccc5)N4C(=O)C(NC(=O)C(C)NC)C3)c2)CCC2CCC(C(=O)NC(c3ccccc3)c3ccccc3)N2C1=O with 323965-272-R-J2-PDC complex spheroid growth, % test/control?
Solution: < 5.00

###

# Test system: 323965-272-R-J2-PDC complex spheroid growth, % test/control
# Assay remarks: Anticancer human tumor 323965-272-R-J2-PDC cell line growth inhibition [Asc];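 also: compound exposure lasted 7 days starting three days after spheroid seeding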;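 as to viability, T/C: 100% = DMSO vehicle control wells with viability set relative to vehicle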
# Condition summary: second compound 0.0316 µM; first compound 3.16 µM; stronger effect = lower value
// values below are reported viability, T/C
Numbers only here, please. The scale is %.

C#Cc1c(F)ccc2cc(O)cc(-c3ncc4c(N5CC6CCC(C5)N6)nc(OCC56CCCN5CC(F)C6)nc4c3F)c12 (stereo not drawn) + Cc1c(S(C)(=O)=O)c(-c2cc(F)cc(N3CCN(c4ccc(NS(=O)(=O)c5ccc(NC(CCN6CCC(C(=O)OCCCP(=O)(O)O)CC6)CSc6ccccc6)c(S(=O)(=O)C(F)(F)F)c5)cc4)CC3)c2)c(-c2ccc(Cl)cc2)n1C(C)C
79.4
O=C(c1cc(Cc2n[nH]c(=O)c3ccccc23)ccc1F)N1CCN(C(=O)C2CC2)CC1 + CNC(C)C(=O)NC1CN(S(=O)(=O)c2cccc(S(=O)(=O)N3CCC4CCC(C(=O)NC(c5ccccc5)c5ccccc5)N4C(=O)C(NC(=O)C(C)NC)C3)c2)CCC2CCC(C(=O)NC(c3ccccc3)c3ccccc3)N2C1=O
102
C=CC(=O)N1CCN(c2nc(=O)n(-c3c(C)ccnc3C(C)C)c3nc(-c4c(O)cccc4F)c(F)cc23)C(C)C1 (stereo not drawn) + Cc1c(S(C)(=O)=O)c(-c2cc(F)cc(N3CCN(c4ccc(NS(=O)(=O)c5ccc(NC(CCN6CCC(C(=O)OCCCP(=O)(O)O)CC6)CSc6ccccc6)c(S(=O)(=O)C(F)(F)F)c5)cc4)CC3)c2)c(-c2ccc(Cl)cc2)n1C(C)C
63.7

Exercise: Look up and report measured viability, T/C for this entry: C=C(F)C(=O)N1CCN(c2nc(OCC3CCCN3C)nc3c2CCN(c2cccc4cccc(Cl)c24)C3)CC1CC#N (stereo not drawn) + CNC(C)C(=O)NC1CN(S(=O)(=O)c2cccc(S(=O)(=O)N3CCC4CCC(C(=O)NC(c5ccccc5)c5ccccc5)N4C(=O)C(NC(=O)C(C)NC)C3)c2)CCC2CCC(C(=O)NC(c3ccccc3)c3ccccc3)N2C1=O
Solution: 76

Exercise: Tell me viability, T/C reported for C=CC(=O)N1CCN(c2nc(=O)n(-c3c(C)ccnc3C(C)C)c3nc(-c4c(O)cccc4F)c(F)cc23)C(C)C1 (stereo not drawn) + CNC(C)C(=O)NC1CN(S(=O)(=O)c2cccc(S(=O)(=O)N3CCC4CCC(C(=O)NC(c5ccccc5)c5ccccc5)N4C(=O)C(NC(=O)C(C)NC)C3)c2)CCC2CCC(C(=O)NC(c3ccccc3)c3ccccc3)N2C1=O
Solution: 62

Exercise: Give viability, T/C for the following compound: C#Cc1c(F)ccc2cc(O)cc(-c3ncc4c(N5CC6CCC(C5)N6)nc(OCC56CCCN5CC(F)C6)nc4c3F)c12 (stereo not drawn) + CNC(C)C(=O)NC1CN(S(=O)(=O)c2cccc(S(=O)(=O)N3CCC4CCC(C(=O)NC(c5ccccc5)c5ccccc5)N4C(=O)C(NC(=O)C(C)NC)C3)c2)CCC2CCC(C(=O)NC(c3ccccc3)c3ccccc3)N2C1=O
Solution: 70.4

Exercise: Given O=C(c1cc(Cc2n[nH]c(=O)c3ccccc23)ccc1F)N1CCN(C(=O)C2CC2)CC1 + Cc1c(S(C)(=O)=O)c(-c2cc(F)cc(N3CCN(c4ccc(NS(=O)(=O)c5ccc(NC(CCN6CCC(C(=O)OCCCP(=O)(O)O)CC6)CSc6ccccc6)c(S(=O)(=O)C(F)(F)F)c5)cc4)CC3)c2)c(-c2ccc(Cl)cc2)n1C(C)C , respond with its viability, T/C.
Solution: 98.3

Exercise: For C=C(F)C(=O)N1CCN(c2nc(OCC3CCCN3C)nc3c2CCN(c2cccc4cccc(Cl)c24)C3)CC1CC#N (stereo not drawn) + Cc1c(S(C)(=O)=O)c(-c2cc(F)cc(N3CCN(c4ccc(NS(=O)(=O)c5ccc(NC(CCN6CCC(C(=O)OCCCP(=O)(O)O)CC6)CSc6ccccc6)c(S(=O)(=O)C(F)(F)F)c5)cc4)CC3)c2)c(-c2ccc(Cl)cc2)n1C(C)C , write its viability, T/C.
Solution: 75

###

Attribute: viability, T/C
# System: 323965-272-R-J2-PDC complex spheroid growth, % test/control
# Assay remarks: Anticancer human tumor 323965-272-R-J2-PDC cell line growth inhibition [Asc];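 also: compound exposure lasted 7 days starting three days after spheroid seeding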;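 as to viability, T/C: 100% = DMSO vehicle control wells with viability set relative to vehicle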
# Condition summary: second compound 3.16 µM; first compound 1 µM; stronger effect = lower value
# output: bare number, implied unit %

Check out these entries, answers already filled in.
C#Cc1c(F)ccc2cc(O)cc(-c3ncc4c(N5CC6CCC(C5)N6)nc(OCC56CCCN5CC(F)C6)nc4c3F)c12 (stereo unspecified) + Cc1c(S(C)(=O)=O)c(-c2cc(F)cc(N3CCN(c4ccc(NS(=O)(=O)c5ccc(NC(CCN6CCC(C(=O)OCCCP(=O)(O)O)CC6)CSc6ccccc6)c(S(=O)(=O)C(F)(F)F)c5)cc4)CC3)c2)c(-c2ccc(Cl)cc2)n1C(C)C
76.5
COc1c(OCCCN2CCOCC2)ccc2c3n(c(=NC(=O)c4cnc(N)nc4)nc12)CCN3 + Cc1c(S(C)(=O)=O)c(-c2cc(F)cc(N3CCN(c4ccc(NS(=O)(=O)c5ccc(NC(CCN6CCC(C(=O)OCCCP(=O)(O)O)CC6)CSc6ccccc6)c(S(=O)(=O)C(F)(F)F)c5)cc4)CC3)c2)c(-c2ccc(Cl)cc2)n1C(C)C
21.3
O=C(c1cc(Cc2n[nH]c(=O)c3ccccc23)ccc1F)N1CCN(C(=O)C2CC2)CC1 + Cc1c(S(C)(=O)=O)c(-c2cc(F)cc(N3CCN(c4ccc(NS(=O)(=O)c5ccc(NC(CCN6CCC(C(=O)OCCCP(=O)(O)O)CC6)CSc6ccccc6)c(S(=O)(=O)C(F)(F)F)c5)cc4)CC3)c2)c(-c2ccc(Cl)cc2)n1C(C)C
74.2
CNC(C)C(=O)NC1CN(S(=O)(=O)c2cccc(S(=O)(=O)N3CCC4CCC(C(=O)NC(c5ccccc5)c5ccccc5)N4C(=O)C(NC(=O)C(C)NC)C3)c2)CCC2CCC(C(=O)NC(c3ccccc3)c3ccccc3)N2C1=O (stereo unspecified) + Cc1c(S(C)(=O)=O)c(-c2cc(F)cc(N3CCN(c4ccc(NS(=O)(=O)c5ccc(NC(CCN6CCC(C(=O)OCCCP(=O)(O)O)CC6)CSc6ccccc6)c(S(=O)(=O)C(F)(F)F)c5)cc4)CC3)c2)c(-c2ccc(Cl)cc2)n1C(C)C
29
C=CC(=O)N1CCN(c2nc(=O)n(-c3c(C)ccnc3C(C)C)c3nc(-c4c(O)cccc4F)c(F)cc23)C(C)C1 (stereo unspecified) + Cc1c(S(C)(=O)=O)c(-c2cc(F)cc(N3CCN(c4ccc(NS(=O)(=O)c5ccc(NC(CCN6CCC(C(=O)OCCCP(=O)(O)O)CC6)CSc6ccccc6)c(S(=O)(=O)C(F)(F)F)c5)cc4)CC3)c2)c(-c2ccc(Cl)cc2)n1C(C)C
38.4

Switching to the query record.
Exercise: Give the value of viability, T/C reported for the following: C=C(F)C(=O)N1CCN(c2nc(OCC3CCCN3C)nc3c2CCN(c2cccc4cccc(Cl)c24)C3)CC1CC#N (stereo unspecified) + Cc1c(S(C)(=O)=O)c(-c2cc(F)cc(N3CCN(c4ccc(NS(=O)(=O)c5ccc(NC(CCN6CCC(C(=O)OCCCP(=O)(O)O)CC6)CSc6ccccc6)c(S(=O)(=O)C(F)(F)F)c5)cc4)CC3)c2)c(-c2ccc(Cl)cc2)n1C(C)C
Solution: 41.8

###

# Test system: 323965-272-R-J2-PDC complex spheroid growth, % test/control
# Assay remarks: Anticancer human tumor 323965-272-R-J2-PDC cell line growth inhibition [Asc];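 also: compound exposure lasted 7 days starting three days after spheroid seeding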
# Condition summary: curve of first compound; second compound 0.0316 µM
The following compounds are shown together with reported IC50 values.

Solved entries (count: 3):
C=CC(=O)N1CCN(c2nc(=O)n(-c3c(C)ccnc3C(C)C)c3nc(-c4c(O)cccc4F)c(F)cc23)C(C)C1 (stereo unspecified) + CNC(C)C(=O)NC1CN(S(=O)(=O)c2cccc(S(=O)(=O)N3CCC4CCC(C(=O)NC(c5ccccc5)c5ccccc5)N4C(=O)C(NC(=O)C(C)NC)C3)c2)CCC2CCC(C(=O)NC(c3ccccc3)c3ccccc3)N2C1=O
> 10 µM
C=C(F)C(=O)N1CCN(c2nc(OCC3CCCN3C)nc3c2CCN(c2cccc4cccc(Cl)c24)C3)CC1CC#N (stereo unspecified) + Cc1c(S(C)(=O)=O)c(-c2cc(F)cc(N3CCN(c4ccc(NS(=O)(=O)c5ccc(NC(CCN6CCC(C(=O)OCCCP(=O)(O)O)CC6)CSc6ccccc6)c(S(=O)(=O)C(F)(F)F)c5)cc4)CC3)c2)c(-c2ccc(Cl)cc2)n1C(C)C
4.34 µM
CCN1C(C(=O)NC23CCC(C(=O)O)(CC2)CC3)C(c2cccc(Cl)c2F)C2(C(=O)Nc3cc(Cl)ccc32)C12CCCCC2 (stereo unspecified) + Cc1c(S(C)(=O)=O)c(-c2cc(F)cc(N3CCN(c4ccc(NS(=O)(=O)c5ccc(NC(CCN6CCC(C(=O)OCCCP(=O)(O)O)CC6)CSc6ccccc6)c(S(=O)(=O)C(F)(F)F)c5)cc4)CC3)c2)c(-c2ccc(Cl)cc2)n1C(C)C
> 3 µM

Exercise: Kindly indicate its recorded IC50. Item: NC(=O)C(=Cn1cnc(-c2cc(C(F)(F)F)cc(C(F)(F)F)c2)n1)c1cncnc1 + Cc1c(S(C)(=O)=O)c(-c2cc(F)cc(N3CCN(c4ccc(NS(=O)(=O)c5ccc(NC(CCN6CCC(C(=O)OCCCP(=O)(O)O)CC6)CSc6ccccc6)c(S(=O)(=O)C(F)(F)F)c5)cc4)CC3)c2)c(-c2ccc(Cl)cc2)n1C(C)C
Solution: > 0.3 µM

Exercise: Assign IC50 to the following record: C=CC(=O)N1CCN(c2nc(=O)n(-c3c(C)ccnc3C(C)C)c3nc(-c4c(O)cccc4F)c(F)cc23)C(C)C1 (stereo unspecified) + Cc1c(S(C)(=O)=O)c(-c2cc(F)cc(N3CCN(c4ccc(NS(=O)(=O)c5ccc(NC(CCN6CCC(C(=O)OCCCP(=O)(O)O)CC6)CSc6ccccc6)c(S(=O)(=O)C(F)(F)F)c5)cc4)CC3)c2)c(-c2ccc(Cl)cc2)n1C(C)C
Solution: > 10 µM

Exercise: Return reported IC50. Input compound: CNC(C)C(=O)NC1CN(S(=O)(=O)c2cccc(S(=O)(=O)N3CCC4CCC(C(=O)NC(c5ccccc5)c5ccccc5)N4C(=O)C(NC(=O)C(C)NC)C3)c2)CCC2CCC(C(=O)NC(c3ccccc3)c3ccccc3)N2C1=O (stereo unspecified) + Cc1c(S(C)(=O)=O)c(-c2cc(F)cc(N3CCN(c4ccc(NS(=O)(=O)c5ccc(NC(CCN6CCC(C(=O)OCCCP(=O)(O)O)CC6)CSc6ccccc6)c(S(=O)(=O)C(F)(F)F)c5)cc4)CC3)c2)c(-c2ccc(Cl)cc2)n1C(C)C
Solution: > 1 µM

Exercise: Return IC50 (reported value) for this compound: NC(=O)C(=Cn1cnc(-c2cc(C(F)(F)F)cc(C(F)(F)F)c2)n1)c1cncnc1 + CNC(C)C(=O)NC1CN(S(=O)(=O)c2cccc(S(=O)(=O)N3CCC4CCC(C(=O)NC(c5ccccc5)c5ccccc5)N4C(=O)C(NC(=O)C(C)NC)C3)c2)CCC2CCC(C(=O)NC(c3ccccc3)c3ccccc3)N2C1=O
Solution: > 0.3 µM
